Just for reference, ChEMBL document CHEMBL1143774 is where these values come from.

Let's look at some molecules and their measured pKi.
Experimental System: Glucocorticoid receptor (Homo sapiens, UniProt P04150)
Sequence (P04150 whole entry): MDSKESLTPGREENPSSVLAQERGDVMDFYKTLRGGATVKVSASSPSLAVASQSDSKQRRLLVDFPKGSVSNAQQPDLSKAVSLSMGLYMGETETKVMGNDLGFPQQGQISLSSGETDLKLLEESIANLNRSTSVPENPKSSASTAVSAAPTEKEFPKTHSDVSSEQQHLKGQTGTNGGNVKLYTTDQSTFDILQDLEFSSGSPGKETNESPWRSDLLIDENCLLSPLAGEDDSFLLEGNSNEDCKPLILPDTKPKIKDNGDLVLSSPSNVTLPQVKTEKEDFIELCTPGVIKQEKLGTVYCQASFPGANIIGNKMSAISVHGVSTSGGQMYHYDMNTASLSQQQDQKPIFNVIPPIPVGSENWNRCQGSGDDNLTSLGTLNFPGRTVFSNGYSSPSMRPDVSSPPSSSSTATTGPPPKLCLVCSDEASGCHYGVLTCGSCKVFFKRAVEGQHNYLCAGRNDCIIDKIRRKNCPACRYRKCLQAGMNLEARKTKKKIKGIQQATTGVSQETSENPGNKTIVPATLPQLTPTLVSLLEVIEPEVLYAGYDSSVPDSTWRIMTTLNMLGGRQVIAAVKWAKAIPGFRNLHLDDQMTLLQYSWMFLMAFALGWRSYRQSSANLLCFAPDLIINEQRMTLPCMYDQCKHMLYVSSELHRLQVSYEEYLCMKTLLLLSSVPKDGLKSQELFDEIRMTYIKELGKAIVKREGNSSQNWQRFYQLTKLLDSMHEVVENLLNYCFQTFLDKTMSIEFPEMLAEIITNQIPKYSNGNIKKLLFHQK
Test Name: Displacement of radiolabeled Dexamethasone from human GR
pKi is a log-scale quantity: -log10 of the concentration expressed in molar.

Recorded results for 2 molecules are shown here.
- Sample Smiles: "CC#C[C@]1(O)CC[C@H]2[C@@H]3CCC4=CC(=O)CCC4=C3[C@@H](c3ccc(N(C)CCCCC(=O)O)cc3)C[C@@]21C"
  pKi: 8.32
- Sample Smiles: "CC#C[C@]1(O)CC[C@H]2[C@@H]3CCC4=CC(=O)CCC4=C3[C@@H](c3ccc(N(C)Cc4ccc(C(=O)NCC(=O)O)cc4)cc3)C[C@@]21C"
  pKi: 9.22

With those in mind, consider the next molecule.
Query :: Need pKi, item CC#C[C@]1(O)CC[C@H]2[C@@H]3CCC4=CC(=O)CCC4=C3[C@@H](c3ccc(N(C)Cc4cccc(C(=O)O)c4)cc3)C[C@@]21C
Result :: 8.52

###

Experimental System: Glucocorticoid receptor (Homo sapiens)
Test Name: Displacement of radiolabeled Dexamethasone from human GR
Labelling: Ki reported below 1 nM becomes TRUE; at or above becomes FALSE.

The following compounds have reported results that may help.
- Sample Smiles: "CC#C[C@]1(O)CC[C@H]2[C@@H]3CCC4=CC(=O)CCC4=C3[C@@H](c3ccc(N(C)CC(=O)N(C)c4ccc(C(=O)O)cc4)cc3)C[C@@]21C"
  Class Assignment: "TRUE"
- Sample Smiles: "CC#C[C@]1(O)CC[C@H]2[C@@H]3CCC4=CC(=O)CCC4=C3[C@@H](c3ccc(N(C)Cc4ccc(C(=O)O)cc4)cc3)C[C@@]21C"
  Class Assignment: "FALSE"
- Sample Smiles: "CC#C[C@]1(O)CC[C@H]2[C@@H]3CCC4=CC(=O)CCC4=C3[C@@H](c3ccc(N(C)Cc4ccc(CC(=O)O)cc4)cc3)C[C@@]21C"
  Class Assignment: "FALSE"
- Sample Smiles: "CC#C[C@]1(O)CC[C@H]2[C@@H]3CCC4=CC(=O)CCC4=C3[C@@H](c3ccc(N(C)CC(=O)Nc4ccc(C(=O)O)cc4)cc3)C[C@@]21C"
  Class Assignment: "FALSE"
- Sample Smiles: "CC#C[C@]1(O)CC[C@H]2[C@@H]3CCC4=CC(=O)CCC4=C3[C@@H](c3ccc(N(C)CC(=O)N(Cc4ccc(C(=O)O)cc4)c4ccc(Br)cc4)cc3)C[C@@]21C"
  Class Assignment: "TRUE"
- Sample Smiles: "CC#C[C@]1(O)CC[C@H]2[C@@H]3CCC4=CC(=O)CCC4=C3[C@@H](c3ccc(N(C)CC(=O)N(Cc4ccccc4)Cc4ccc(C(=O)O)cc4)cc3)C[C@@]21C"
  Class Assignment: "FALSE"

Would you kindly look at the next entry?
Query :: State whether 1 nM exceeds Ki recorded for CC#C[C@]1(O)CC[C@H]2[C@@H]3CCC4=CC(=O)CCC4=C3[C@@H](c3ccc(N(C)CC(=O)Nc4nc(CC(=O)O)cs4)cc3)C[C@@]21C .
Result :: FALSE

###

Test Name: Ratio of drug level in liver to plasma in Sprague-Dawley rat at 1 hr
Format: ADME, tissue-based
Condition: liver and plasma
Observable: Kp at 1 h
Just the number.

Query :: Need Kp at 1 h, item CC#C[C@]1(O)CC[C@H]2[C@@H]3CCC4=CC(=O)CCC4=C3[C@@H](c3ccc(N(C)Cc4ccc(C(C)C(=O)O)cc4)cc3)C[C@@]21C (stereo partly specified)
Result :: 17
